Listing of recorded pEC50 by entry.
# testedTarget: soluble guanylate cyclase (sGC) endogenously expressed in HEK293 cells (Homo sapiens, UniProt Q02108+Q02153)
# Construct: endogenously expressing soluble guanylate cyclase (sGC); endogenous in cells
# Sequence (Q02153 whole entry): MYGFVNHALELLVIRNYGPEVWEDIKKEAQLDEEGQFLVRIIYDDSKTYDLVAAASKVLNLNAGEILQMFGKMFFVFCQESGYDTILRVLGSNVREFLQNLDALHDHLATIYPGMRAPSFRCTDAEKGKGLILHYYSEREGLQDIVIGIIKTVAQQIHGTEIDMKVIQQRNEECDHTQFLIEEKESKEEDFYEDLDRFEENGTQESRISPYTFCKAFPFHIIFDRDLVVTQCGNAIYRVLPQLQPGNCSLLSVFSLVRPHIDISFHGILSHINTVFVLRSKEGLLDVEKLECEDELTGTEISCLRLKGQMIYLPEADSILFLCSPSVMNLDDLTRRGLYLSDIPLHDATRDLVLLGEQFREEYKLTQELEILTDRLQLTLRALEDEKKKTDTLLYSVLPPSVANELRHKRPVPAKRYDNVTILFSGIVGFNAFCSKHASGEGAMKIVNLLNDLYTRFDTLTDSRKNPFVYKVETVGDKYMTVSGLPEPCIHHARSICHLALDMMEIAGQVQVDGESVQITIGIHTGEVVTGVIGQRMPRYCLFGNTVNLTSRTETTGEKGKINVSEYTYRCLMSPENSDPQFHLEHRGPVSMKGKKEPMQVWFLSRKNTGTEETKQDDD
# Sequence (Q02108 whole entry): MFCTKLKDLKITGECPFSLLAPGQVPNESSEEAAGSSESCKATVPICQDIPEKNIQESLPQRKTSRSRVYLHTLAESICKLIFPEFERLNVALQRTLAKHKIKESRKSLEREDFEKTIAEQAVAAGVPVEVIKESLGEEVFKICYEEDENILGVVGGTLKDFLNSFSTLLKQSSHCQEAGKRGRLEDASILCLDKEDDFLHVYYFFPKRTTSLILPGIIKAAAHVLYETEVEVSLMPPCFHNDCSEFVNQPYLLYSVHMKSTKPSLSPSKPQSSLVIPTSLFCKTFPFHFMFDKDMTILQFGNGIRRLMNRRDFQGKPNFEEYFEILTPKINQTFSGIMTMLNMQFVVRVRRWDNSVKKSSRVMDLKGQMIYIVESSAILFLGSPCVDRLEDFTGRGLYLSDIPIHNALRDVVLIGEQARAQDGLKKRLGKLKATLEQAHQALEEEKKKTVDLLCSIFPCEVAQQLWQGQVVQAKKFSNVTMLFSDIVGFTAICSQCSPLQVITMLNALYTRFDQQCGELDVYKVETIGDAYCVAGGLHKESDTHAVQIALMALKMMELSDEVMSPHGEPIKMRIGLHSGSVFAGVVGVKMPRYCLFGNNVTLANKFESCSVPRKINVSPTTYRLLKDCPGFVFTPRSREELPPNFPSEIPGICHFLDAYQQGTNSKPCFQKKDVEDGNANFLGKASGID
# testMethodNotes: sGC-HEK-cGMP assay with LC/MS detection (whole cell)
# conditionsUsed: 10 μM DETA-NONOate, 20 min, concentration eliciting 50% of high control response (30 μM Compound Y), read-out: sGC_HEK_LC MS EC50 Abs
pEC50: −log10 of the molar value.
observationType: pEC50

>>> print(df.to_string())
                                   compound  valuemeasured
0  CCOC(=O)C1(C)C(=O)Nc2nc(-c3nn(Cc4ccccc4F)c(=O)n3C)nc(N)c21 (centres unmarked)         ≤ 6.00
1  COc1c(C#N)c(-c2nc(N)c3c(n2)NC(=O)C3(C)C(N)=O)nn1Cc1ccccc1F (centres unmarked)   6.00 to 7.00
2  COc1cc(-c2ncc(F)c(N3CCC(C(=O)O)(C(C)C)CC3)n2)nn1Cc1ccccc1F   6.00 to 7.00
3  COc1nc(-c2nc(N)c3c(n2)NC(=O)C3(C)C(N)=O)nn1Cc1ccccc1F (centres unmarked)         ≤ 6.00
4  COc1cc(-c2ncc(F)c(NCC(N)=O)n2)nn1Cc1ccccc1F         ≤ 6.00
